Quick reference for solubility among some compounds
# experimentNotes: Water solubility of hydroxyitraconazole phosphate isomers (NMG salts)
# Format: physicochemical
# conditionParameters: water; Table 8
# From the text: The water solubility of the NMG salts of the phosphate esters of isomers 1, 2 and 3+4 were investigated and compared to the corresponding hydroxyitraconazole isomers 1, 2 and 3+4. The phosphate esters were as much as 10^7 times more water soluble than the corresponding hydroxyitraconazole isomer.

>>> result("CC(OP(=O)(O)O)C(C)n1ncn(-c2ccc(N3CCN(c4ccc(OC[C@H]5CO[C@](Cn6cncn6)(c6ccc(Cl)cc6Cl)O5)cc4)CC3)cc2)c1=O (stereo partly drawn) [3 + 4-PO3 --NMG2]")
"> 100 mg/mL"
>>> result("C[C@H](OP(=O)(O)O)[C@@H](C)n1ncn(-c2ccc(N3CCN(c4ccc(OC[C@H]5CO[C@](Cn6cncn6)(c6ccc(Cl)cc6Cl)O5)cc4)CC3)cc2)c1=O [2-PO3 --NMG2]")
"> 100 mg/mL"

What does the record list as solubility for C[C@@H](OP(=O)(O)O)[C@H](C)n1ncn(-c2ccc(N3CCN(c4ccc(OC[C@H]5CO[C@](Cn6cncn6)(c6ccc(Cl)cc6Cl)O5)cc4)CC3)cc2)c1=O [1-PO3 --NMG2] ?
> 100 mg/mL
